B1: Formin-binding protein 4, residues 200 to 261; numbered along this chain, Q8N3X1 (parent)
chain: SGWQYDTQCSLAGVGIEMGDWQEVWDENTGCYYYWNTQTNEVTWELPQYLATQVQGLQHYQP

variants of: B1; test: abundance fitness (aPCA) (normalised: wild type 0, dead -1); higher = more abundant; growth selection in yeast, the domain comes from the species named; conditions: Homo sapiens
Kindly return t if reported abundance fitness is no lower than -0.2; return f if it is lower.

Textbook exercise: given the entry SGWQYDTQCSLAGVGIEMGDWQEVWDENTGCYYYWNNQTNEVTWELPQYLATQVQGLQHYQP [T37N] , state whether its abundance fitness is greater than or equal to -0.2. t

Textbook exercise: given the entry SGWQYDTQCSLAGVGIEMGDWQEVWDENTGCYYYWNTQTNEVTWELPQYLNTQVQGLQHYQP [A51N] , state whether its abundance fitness is greater than or equal to -0.2. f

Textbook exercise: given the entry SGWQYDTQCSLAGVGIEMGDWQEVWDENTGCYWYWNTQTNEVTWELPQYLATQVQGLQHYQP [Y33W] , state whether its abundance fitness is greater than or equal to -0.2. f

Textbook exercise: given the entry SGWQYDTQCSLAGVGIEMGDWQEVWDENTGCYYYWNTQTNEVTWELHQYLATQVQGLQHYQP [P47H] , state whether its abundance fitness is greater than or equal to -0.2. f

Textbook exercise: given the entry SGWQYDTQCSLAGVGIEPGDWQEVWDENTGCYYYWNTQTNEVTWELPQYLATQVQGLQHYQP [M18P] , state whether its abundance fitness is greater than or equal to -0.2. f

Textbook exercise: given the entry SGWQYDTQCSLAGVGIEMGDWQEVWDENCGCYYYWNTQTNEVTWELPQYLATQVQGLQHYQP [T29C] , state whether its abundance fitness is greater than or equal to -0.2. t

Textbook exercise: given the entry SGWQYDTQCSLAGVGIEAGDWQEVWDENTGCYYYWNTQTNEVTWELPQYLATQVQGLQHYQP [M18A] , state whether its abundance fitness is greater than or equal to -0.2. f

Textbook exercise: given the entry SGWQYDTQCSLAGVGIEMGDWQEVWDENTGCYYYWNTWTNEVTWELPQYLATQVQGLQHYQP [Q38W] , state whether its abundance fitness is greater than or equal to -0.2. f

Textbook exercise: given the entry SGWQYDTQCSLAGVGIEMGDWQEVWDENTGCYYYWNTQTNEVTWELIQYLATQVQGLQHYQP [P47I] , state whether its abundance fitness is greater than or equal to -0.2. f

Textbook exercise: given the entry SGDQYDTQCSLAGVGIEMGDWQEVWDENTGCYYYWNTQTNEVTWELPQYLATQVQGLQHYQP [W3D] , state whether its abundance fitness is greater than or equal to -0.2. t

Textbook exercise: given the entry SGWQYDTQCSLAGVGIEMGDWQEVWDENTGCYYYWNTQTNEVTWELPQYLATQSQGLQHYQP [V54S] , state whether its abundance fitness is greater than or equal to -0.2. f

Textbook exercise: given the entry SGWKYDTQCSLAGVGIEMGDWQEVWDENTGCYYYWNTQTNEVTWELPQYLATQVQGLQHYQP [Q4K] , state whether its abundance fitness is greater than or equal to -0.2. t

Textbook exercise: given the entry SGWQYDTQKSLAGVGIEMGDWQEVWDENTGCYYYWNTQTNEVTWELPQYLATQVQGLQHYQP [C9K] , state whether its abundance fitness is greater than or equal to -0.2. t

Textbook exercise: given the entry SGWQYDTQCSLAGVGIEMGDWQEVWDENTGCYYYWNTQTNEVTWELEQYLATQVQGLQHYQP [P47E] , state whether its abundance fitness is greater than or equal to -0.2. f

Textbook exercise: given the entry SGWQYDTQCSLAGVGIEMGDWQEVWDENTGCYYYWNTQTNEVTWELPNYLATQVQGLQHYQP [Q48N] , state whether its abundance fitness is greater than or equal to -0.2. t

Textbook exercise: given the entry SGWQYDTQCSLAGVGIEMGDWQEVWDENNGCYYYWNTQTNEVTWELPQYLATQVQGLQHYQP [T29N] , state whether its abundance fitness is greater than or equal to -0.2. t

Textbook exercise: given the entry SGWQYDTQCSLAGVGIEMGDWQEVWDEETGCYYYWNTQTNEVTWELPQYLATQVQGLQHYQP [N28E] , state whether its abundance fitness is greater than or equal to -0.2. t

Textbook exercise: given the entry SGWQYDTQCSLAGGGIEMGDWQEVWDENTGCYYYWNTQTNEVTWELPQYLATQVQGLQHYQP [V14G] , state whether its abundance fitness is greater than or equal to -0.2. t

Textbook exercise: given the entry SGWQYDTQCSLAGVGIEMGDWQEVWDENTGCYYYWNIQTNEVTWELPQYLATQVQGLQHYQP [T37I] , state whether its abundance fitness is greater than or equal to -0.2. t

Textbook exercise: given the entry SGWQYDTQCSLAGVGIEMGDWQEVWDENTGCYYYWNTQTNEVTWELPQYCATQVQGLQHYQP [L50C] , state whether its abundance fitness is greater than or equal to -0.2. f

Textbook exercise: given the entry SGWQYDTQCSLKGVGIEMGDWQEVWDENTGCYYYWNTQTNEVTWELPQYLATQVQGLQHYQP [A12K] , state whether its abundance fitness is greater than or equal to -0.2. t

Textbook exercise: given the entry SGWQYDTQCSLAGVGIEMGDWQEVWDENTGCYYYWNTQTNEVTWELPQYLATQVQGLQHHQP [Y60H] , state whether its abundance fitness is greater than or equal to -0.2. t

This collection of values is drawn from the Human Domainome abundance scans (Beltran et al. 2025).
